Procedure Summary: Apparent permeability from apical to basolateral side across human Caco2 cells
Type: ADME, cell-based
Study Conditions: Caco-2

{"columns": ["Chemical Smiles", "Unit", "Papp A→B"],
 "data": [
  ["c1ccc2c(N3CCNCC3)nc(-c3ccc4[nH]ncc4c3)nc2c1", "×10⁻⁶ cm/s", 5.65]
]}

====

Procedure Summary: Plasma concentration in Balb/C mouse at 1 mg/kg, it after 0.5 hrs
Format: ADME, organism-based
Design: dose 1 mg/kg, route endotracheal
Study Conditions: inhaled or intranasal
Assay Endpoint: concentration at 0.5 h (nM)

{"columns": ["Chemical Smiles", "Unit", "Meas Value"],
 "data": [
  ["c1cc2c(N3CCNCC3)nc(-c3ccc4[nH]ncc4c3)nc2cn1", "nM", 500]
]}

====

Procedure Summary: Drug concentration in Balb/C mouse lung at 1 mg/kg, it after 3 hrs
Type: ADME, organism-based
Parameters: dose 1 mg/kg, route endotracheal
Study Conditions: inhaled or intranasal, read-out: Drug uptake

{"columns": ["Chemical Smiles", "concentration at 3 h / nM"],
 "data": [
  ["c1cc2c(N3CCNCC3)nc(-c3ccc4[nH]ncc4c3)nc2cn1", 1900]
]}

====

Procedure Summary: AUC (0 to 6 hrs) in mouse lung at 1 mg/kg, it
Type: ADME, organism-based
Design: time < 6 hr, dose 1 mg/kg, route endotracheal
Study Conditions: inhaled or intranasal
// values below are reported AUC(0-t) at 6 h

{"columns": ["Chemical Smiles", "Unit", "AUC(0-t) at 6 h"],
 "data": [
  ["c1ccc2c(N3CCNCC3)nc(-c3ccc4[nH]ncc4c3)nc2c1", "µM·h", 9.31],
  ["c1cc2c(N3CCNCC3)nc(-c3ccc4[nH]ncc4c3)nc2cn1", "µM·h", 16]
]}

====

Procedure Summary: Drug concentration in Balb/C mouse lung at 1 mg/kg, it after 0.5 hrs
Format: ADME, organism-based
Design: dose 1 mg/kg, route endotracheal
Study Conditions: inhaled or intranasal, read-out: Drug uptake

{"columns": ["Chemical Smiles", "concentration at 0.5 h, µM"],
 "data": [
  ["c1cc2c(N3CCNCC3)nc(-c3ccc4[nH]ncc4c3)nc2cn1", 32.5]
]}

====

Procedure Summary: AUC (0 to 6 hrs) in mouse plasma at 1 mg/kg, it
Type: ADME, organism-based
Parameters: time < 6 hr, dose 1 mg/kg, route endotracheal
Study Conditions: inhaled or intranasal
// values below are reported AUC(0-t) at 6 h
Assay Endpoint: AUC(0-t) at 6 h (µM·h)

{"columns": ["Chemical Smiles", "Meas Value"],
 "data": [
  ["c1ccc2c(N3CCNCC3)nc(-c3ccc4[nH]ncc4c3)nc2c1", 0.665],
  ["c1cc2c(N3CCNCC3)nc(-c3ccc4[nH]ncc4c3)nc2cn1", 0.302]
]}

====

Procedure Summary: Plasma concentration in Balb/C mouse at 1 mg/kg, iv after 0.5 hrs
Assay type: ADME, organism-based
Set-up: dose 1 mg/kg, route intravenous
Assay Endpoint: concentration at 0.5 h (nM)

{"columns": ["Chemical Smiles", "Assay Endpoint", "Meas Value"],
 "data": [
  ["c1cc2c(N3CCNCC3)nc(-c3ccc4[nH]ncc4c3)nc2cn1", "concentration at 0.5 h", 400]
]}
